# ASSAYED_TARGET: TGFBR2 (human) (UniProt P37173)
# Sequence (P37173 whole entry, looked up): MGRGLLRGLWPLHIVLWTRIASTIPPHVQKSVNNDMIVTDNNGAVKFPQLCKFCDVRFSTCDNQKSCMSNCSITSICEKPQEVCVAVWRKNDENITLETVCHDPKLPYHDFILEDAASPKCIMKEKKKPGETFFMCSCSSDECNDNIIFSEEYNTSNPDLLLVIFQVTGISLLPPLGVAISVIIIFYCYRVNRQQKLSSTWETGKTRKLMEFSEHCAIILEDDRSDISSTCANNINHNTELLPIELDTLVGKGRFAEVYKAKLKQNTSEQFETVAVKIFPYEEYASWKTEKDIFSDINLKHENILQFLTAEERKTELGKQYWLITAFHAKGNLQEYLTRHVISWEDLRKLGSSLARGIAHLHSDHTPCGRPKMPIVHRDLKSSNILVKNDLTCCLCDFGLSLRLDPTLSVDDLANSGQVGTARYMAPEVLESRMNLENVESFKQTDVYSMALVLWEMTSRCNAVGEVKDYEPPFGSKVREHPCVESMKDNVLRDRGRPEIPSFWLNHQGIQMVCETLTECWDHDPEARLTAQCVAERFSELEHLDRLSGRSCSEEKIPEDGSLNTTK
# ASSAY: KINOMEscan competition binding
# EXPERIMENTAL_CONDITIONS: compound 10.0 µM
REPORTED_ENDPOINT: kinase still bound, per cent of control (%)

INSERT INTO results (test_smiles, test_result) VALUES
  ('COC(=O)Nc1ccc(-c2nc(N3CCOCC3)c3cnn(C4CCN(C(=O)OC)CC4)c3n2)cc1', 78),
  ('CCC(=O)N1CCN(c2ccc(-n3c(=O)ccc4cnc5ccc(-c6cnc7ccccc7c6)cc5c43)cc2C(F)(F)F)CC1', 77),
  ('CC(C)n1nc(-c2cc3cc(O)ccc3[nH]2)c2c(N)ncnc21', 2.8),
  ('COc1ccc(-c2ccc3c(N4CCOCC4)nc(N4C[C@@H](C)O[C@@H](C)C4)nc3n2)cc1CO', 92);

====

# ASSAYED_TARGET: PHKG2 (human)
# ASSAY: KINOMEscan competition binding
# EXPERIMENTAL_CONDITIONS: compound 10.0 µM
kinase still bound, per cent of control for assorted compounds
REPORTED_ENDPOINT: kinase still bound, per cent of control (%)

INSERT INTO assay_data (test_smiles, assayed_target, reported_endpoint, unit_of_measurement, test_result) VALUES
  ('COC(=O)Nc1ccc(-c2nc(N3CCOCC3)c3cnn(C4CCN(C(=O)OC)CC4)c3n2)cc1', 'PHKG2 (human)', 'kinase still bound, per cent of control', '%', 86),
  ('CC(C)n1nc(-c2cc3cc(O)ccc3[nH]2)c2c(N)ncnc21', 'PHKG2 (human)', 'kinase still bound, per cent of control', '%', 12),
  ('CCC(=O)N1CCN(c2ccc(-n3c(=O)ccc4cnc5ccc(-c6cnc7ccccc7c6)cc5c43)cc2C(F)(F)F)CC1', 'PHKG2 (human)', 'kinase still bound, per cent of control', '%', 100),
  ('COc1ccc(-c2ccc3c(N4CCOCC4)nc(N4C[C@@H](C)O[C@@H](C)C4)nc3n2)cc1CO', 'PHKG2 (human)', 'kinase still bound, per cent of control', '%', 77);

====

# ASSAYED_TARGET: RPS6KA6 KD1 (human)
# ASSAY: KINOMEscan competition binding
# EXPERIMENTAL_CONDITIONS: compound 10.0 µM
REPORTED_ENDPOINT: kinase still bound, per cent of control

INSERT INTO measurements (test_smiles, test_result) VALUES
  ('CC(C)n1nc(-c2cc3cc(O)ccc3[nH]2)c2c(N)ncnc21', '4.6%'),
  ('CCC(=O)N1CCN(c2ccc(-n3c(=O)ccc4cnc5ccc(-c6cnc7ccccc7c6)cc5c43)cc2C(F)(F)F)CC1', '66%'),
  ('COC(=O)Nc1ccc(-c2nc(N3CCOCC3)c3cnn(C4CCN(C(=O)OC)CC4)c3n2)cc1', '86%'),
  ('COc1ccc(-c2ccc3c(N4CCOCC4)nc(N4C[C@@H](C)O[C@@H](C)C4)nc3n2)cc1CO', '76%');

====

kinase still bound, per cent of control for assorted compounds
# ASSAYED_TARGET: NLK (human) (UniProt Q9UBE8)
# Sequence (Q9UBE8 whole entry, looked up): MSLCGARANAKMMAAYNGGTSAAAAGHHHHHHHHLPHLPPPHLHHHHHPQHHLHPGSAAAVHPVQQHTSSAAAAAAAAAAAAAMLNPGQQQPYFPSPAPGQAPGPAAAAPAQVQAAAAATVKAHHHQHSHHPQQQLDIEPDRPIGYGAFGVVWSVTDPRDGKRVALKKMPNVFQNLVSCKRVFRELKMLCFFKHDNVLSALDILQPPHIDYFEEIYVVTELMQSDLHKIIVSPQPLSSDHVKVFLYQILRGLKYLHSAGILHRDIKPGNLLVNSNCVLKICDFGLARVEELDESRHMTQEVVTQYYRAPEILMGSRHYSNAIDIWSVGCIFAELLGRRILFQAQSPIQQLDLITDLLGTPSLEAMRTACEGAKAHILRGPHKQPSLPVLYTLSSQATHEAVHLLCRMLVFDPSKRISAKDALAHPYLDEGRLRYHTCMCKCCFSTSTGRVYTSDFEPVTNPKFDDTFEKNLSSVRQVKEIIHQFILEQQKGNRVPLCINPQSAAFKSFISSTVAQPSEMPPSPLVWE
# ASSAY: KINOMEscan competition binding
# EXPERIMENTAL_CONDITIONS: compound 10.0 µM
REPORTED_ENDPOINT: kinase still bound, per cent of control (%)

INSERT INTO assay_data (test_smiles, test_result) VALUES
  ('CC(C)n1nc(-c2cc3cc(O)ccc3[nH]2)c2c(N)ncnc21', 10),
  ('COc1ccc(-c2ccc3c(N4CCOCC4)nc(N4C[C@@H](C)O[C@@H](C)C4)nc3n2)cc1CO', 96),
  ('COC(=O)Nc1ccc(-c2nc(N3CCOCC3)c3cnn(C4CCN(C(=O)OC)CC4)c3n2)cc1', 99),
  ('CCC(=O)N1CCN(c2ccc(-n3c(=O)ccc4cnc5ccc(-c6cnc7ccccc7c6)cc5c43)cc2C(F)(F)F)CC1', 25);
